Where these numbers come from: paper PMC3999109

Parameter Vmax: see the listing below.
substrate: CC(=O)CC(=O)SCCNC(=O)CCNC(=O)[C@H](O)C(C)(C)COP(=O)(O)OP(=O)(O)OC[C@H]1O[C@@H](n2cnc3c(N)ncnc32)[C@H](O)[C@@H]1OP(=O)(O)O; test: purified protein; assay type: biochemical, Caenorhabditis elegans; conditions: 100 µM NADH (saturating), 0.1 M citrate/phosphate pH 7.0, 0.1 mM dithiothreitol, 298 K, 23 nM protein, AACoA 30-70 µM, 25.0 °C
Write it as a number; the unit µmol/min/mg goes unstated.

3-hydroxyacyl-CoA dehydrogenase from C. elegans, wild type (enzyme, Caenorhabditis elegans, 3-hydroxyacyl-CoA dehydrogenase (cHAD), Caenorhabditis elegans, WormBase WBGene00010035, GenBank CAA80153.1; N-terminal domain 9-194, loop 195-201 and C-terminal domain 202-297 described in the structure; vector pEXS-CG (derived from pET-22b(+)); also called cHAD; wild type cHAD; not shown: GST, C-terminal, cleaved) MFTAKCAMQNIRNVAIVGSGQMGSGIAQVTASSGFNVMLADVNKKALDRAMKAISQSVTHLSKKQKGTDKEKSDFVTLTMSRIKTCNNVSTAVADADLIIEAAIENIDLKRGIFAQIEQSCKKDSILTTNTSSFLLEDVAKGLQDKTRFGGLHFFNPVPVMKLLEVIRSDDTSDETYATLIKFGTAVGKTTVACKDSPGFIVNRLLIPYFFEAARMYERGDASMTDIDEAMKLGAGHPMGPFELADYIGLDTVKFVMDGWAAKYPEVQLFEASPLVDKLVAEGKLGRKTGDGFYSYKK :: 78
3-hydroxyacyl-CoA dehydrogenase from C. elegans, R204A mutant (enzyme, Caenorhabditis elegans, 3-hydroxyacyl-CoA dehydrogenase (cHAD), Caenorhabditis elegans, WormBase WBGene00010035, GenBank CAA80153.1; as m1 with R204A; Made by overlapping PCR from the wild type plasmid, ligated into pEXS-CG (BamHI, EcoRI); also called cHAD R204A; source: E. coli BL21 (DE3), purified (same procedure as the wild type); not shown: GST, C-terminal, cleaved) MFTAKCAMQNIRNVAIVGSGQMGSGIAQVTASSGFNVMLADVNKKALDRAMKAISQSVTHLSKKQKGTDKEKSDFVTLTMSRIKTCNNVSTAVADADLIIEAAIENIDLKRGIFAQIEQSCKKDSILTTNTSSFLLEDVAKGLQDKTRFGGLHFFNPVPVMKLLEVIRSDDTSDETYATLIKFGTAVGKTTVACKDSPGFIVNALLIPYFFEAARMYERGDASMTDIDEAMKLGAGHPMGPFELADYIGLDTVKFVMDGWAAKYPEVQLFEASPLVDKLVAEGKLGRKTGDGFYSYKK :: 48

In: Entry 3-hydroxyacyl-CoA dehydrogenase from C. elegans, R204A/Y209A mutant (enzyme, Caenorhabditis elegans, 3-hydroxyacyl-CoA dehydrogenase (cHAD), Caenorhabditis elegans, WormBase WBGene00010035, GenBank CAA80153.1; as m1 with R204A and Y209A; Made by overlapping PCR from the wild type plasmid, ligated into pEXS-CG (BamHI, EcoRI); also called cHAD R204A/Y209A; source: E. coli BL21 (DE3), purified (same procedure as the wild type); not shown: GST, C-terminal, cleaved) MFTAKCAMQNIRNVAIVGSGQMGSGIAQVTASSGFNVMLADVNKKALDRAMKAISQSVTHLSKKQKGTDKEKSDFVTLTMSRIKTCNNVSTAVADADLIIEAAIENIDLKRGIFAQIEQSCKKDSILTTNTSSFLLEDVAKGLQDKTRFGGLHFFNPVPVMKLLEVIRSDDTSDETYATLIKFGTAVGKTTVACKDSPGFIVNALLIPAFFEAARMYERGDASMTDIDEAMKLGAGHPMGPFELADYIGLDTVKFVMDGWAAKYPEVQLFEASPLVDKLVAEGKLGRKTGDGFYSYKK : reported Vmax = ?
Out: 18
